Where do these numbers come from? They come from ChEMBL document CHEMBL4400510.

measurement description: Selectivity index, ratio of CC50 for African green monkey Vero cells to MIC>90 multi drug resistant Mycobacterium tuberculosis 16995
Type: toxicity
run parameters: read-out: Selectivity Index
value kind: selectivity ratio

What the record says about `CCc1nc2ccc(Cl)cn2c1C(=O)NCc1ccc(N2CCC3(CC2)CCN(c2ccc(OC(F)(F)F)cc2)CC3)cc1` : selectivity ratio is > 1000

====

measurement description: Selectivity index, ratio of CC50 for African green monkey Vero cells to MIC>90 multi drug resistant Mycobacterium tuberculosis 16995
Assay type: toxicity
run parameters: read-out: Selectivity Index
value kind: selectivity ratio

Worked examples follow.
CCc1nc2ccc(Cl)cn2c1C(=O)NCc1ccc(N2CCN(CC3CCCCC3)CC2)cc1 = > 1000
CCc1nc2ccc(Cl)cn2c1C(=O)NCc1ccc(N2CC3CN(CC4CCCCC4)CC3C2)cc1 (centres undefined) = > 1000
CCc1nc2ccc(Cl)cn2c1C(=O)NCc1ccc(N2CC3CN(Cc4ccc(OC(F)(F)F)cc4)CC3C2)cc1 (centres undefined) = > 586

Attention now shifts to the item below.
What the record says about CCc1nc2ccc(Cl)cn2c1C(=O)NCc1ccc(N2CCC(c3ccc(OC(F)(F)F)cc3)CC2)cc1 [TELACEBEC] : selectivity ratio is > 1000
